All figures here come from patent US20240009190A1.

# protocol details: Mice body weight in CT-26 WT tumor model (Example 2)
# Assay type: in vivo, BALB/c female mice
# run conditions: Day 22; compounds 15 mg/kg tail vein once per day; anti-m-PD-1 10 mg/kg IP once every five days
This listing pairs molecules with measured Average body weight.

{"molecule": "NC(=O)c1nnc(OC2CCCNC2)c2cc(-c3cccc(F)c3)sc12 (stereo not shown) [Compound 6-1]", "Average body weight, g": 18.57}
{"molecule": "NC(=O)c1nnc(N[C@H]2CCCNC2)c2cc(-c3cccc(F)c3)sc12 [Compound 6]", "Average body weight, g": 18.37}
{"molecule": "NC(=O)c1nnc(SC2CCCNC2)c2cc(-c3cccc(F)c3)sc12 (stereo not shown) [Compound 6-2]", "Average body weight, g": 19.14}
{"molecule": "NC(=O)c1nnc(CC2CCCNC2)c2cc(-c3cc(Cl)cc(Cl)c3)sc12 (stereo not shown) [Compound 6-3]", "Average body weight, g": 19.38}
